Biological target: T1, human CLDN18.2 (human)
T1 construct: over-expressed on HEK293T or OCUM-1 cells by lentivirus; KATO-III and NUGC4 gastric cancer cells express it naturally; also called hCLDN18.2; hCLDNA18.2
Assay: imaging cytometry (% fluorescent cells), HEK293T-hCLDN18.2 cells
test_readout: EC50 (mg/L)
One number for each entry, in mg/L.

Request: Which measured EC50 value corresponds to 44F7-chIgG1 (antibody, V domains shown, human-mouse chimeric antibody, human IgG1/kappa constant regions; also called parental chimeric antibody) VH: QVQLQQSGAELVRPGASVKMSCKASGYTFTSYNMHWVKQAPRQGLEWIGTIYPGNGDTSYNQKFKGKATLTVDKSSSTAYMQLSSLTSEDSAVYFCARGGYYGNSLDYWGQGTTLTVSS VL: DIQMTQSPSSLTVTAGEKVTMSCKSSQSLLNSGNQKNYLTWYQQKPGQPPKLLIYWASTRESGVPDRFTGSGSGTDFTLTISSVQAEDLAVYYCQNAYYYPFTFGSGTKLEIKR ?
Response: 0.027

Hello, the source for this data is patent US20210403552A1, in case you need it.
